TARGET_UNDER_TEST: D614G Spike (SARS-CoV-2, UniProt P0DTC2 16-1213)
MEASURE: Kd
I'd appreciate it if you wrote the number followed by its unit.

Consider the following illustrative entries.
Ask | // fetch Kd given entry Ab 21 (scFv, V domains shown) VH: QVQLVQSGGGLVQPGGSLRLSCATSGFTFDDYAMHWVRQAPGKGLEWVSGISWNSGSIGYVDSVKGRFTISRDNRNNKVYLQMNNLRAEDTAVYYCARDWWGSIDHWGLGTLVTVSS VL: QSALTQPRSVSGSPGQSVTISCTGTSSDVGGYDYVSWYQQHPGKAPKLIIYDVSKRPSGVPDRFSGSKSGNTASLTVSGLQAEDEADYYCSSYTSSSPVVFGGGTKLTVL
Reply | 8 pM

Ask | // fetch Kd given entry RBD-R3-E1-G7 (Ab2-10) (scFv, V domains shown) VH: EVQLVESGPGLVKPSETLSLTCTVSGGSISSYYWSWIRQPAGKGLEWIGRIYTSGSTNYNPSLKSRVTMSVDTSKNQFSLKLSSVTAADTAVYYCARDVGFGWFDRWGQGTLVTVSS VL: NFMLTQPHSVSESPGKTVTISCTRSSGSIASNYVQWYQQRPGSSPTTVIYEDNQRPSGVPDRFSGSIDSSSNSASLTISGLTTEDEADYYCQSFDSASLWVFGGGTKLTVL
Reply | 8.87 pM

Ask | // fetch Kd given entry Ab 26 (scFv, V domains shown) VH: QVQLVQSGGGLVQPGRSLRLSCAASGFTFDDYAMHWVRQVPGKGLEWVSGIDWNSGVIGYADSVKGRFTISRDNAKNSLYLQMNSLRAEDTALYYCAKDAYSYGFLGAFDIWGQGTMVTVSS VL: LPVLTQPPSVSVAPGQTASITCGGDNIRTKGVHWYQQKPGQAPLLVIYYASDRPSGIPERFSGSSSGNTATLTISRVEAGDEADYYCQVWDSSSDLVVFGGGTTLTVL
Reply | 9.97 pM

Ask | // fetch Kd given entry RBD-R3-T1-H3 (Ab_2) (scFv, V domains shown) VH: EVQLVQSGAEVKKPGSSVKVSCKTSGYTFTTSGISWVRQAPGQGLEWMGWISAYNGNTNYAQKLQGRVTMTTDTSTSTAYMELRSLRSDDTAVYYCARDFHLYYGMDVWGKGTLVTVSS VL: QSALTQPPSASGSPGQSVTISCTGTSSDVGAYNYVSWYQQHPGKAPKLLIYDVTKRPPGVPDRFSGSKSGNTASLTVSGLQAEDEADYYCAVWDDGLNGRVVFGGGTKLTVL
Reply | 167 pM

***
Ask | // fetch Kd given entry RBD-R3-E1-A5 Ab (Ab_30) (scFv, V domains shown) VH: QVQLVQSGGGVVQPGKSLRLSCTASGFTFSDFPIHWVRQAPGKGLEWVGVISYDGNIKYYGDSVKGRFTISRDNAKNSLYLQMNSLRVEDTAVYYCARGGSSFDIWGQGTTVTVSS VL: SYELTQPPSVSEAPRQRVTISCSGSTSNIGNNAVSWYQHLPGKAPKLLIYYNERLPSGVSDRFSGSKSGTSASLAISGLRSEDEADYYCAAWDDSLSGHVVFGGGTKLTVL
Reply | 7.43 pM
